Values from ChEMBL document CHEMBL1961873

testedSystem: MAP/microtubule affinity-regulating kinase 4 (Homo sapiens) (UniProt Q96L34);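 also: values are averaged percent inhibition of MARK4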
Sequence (Q96L34 whole entry): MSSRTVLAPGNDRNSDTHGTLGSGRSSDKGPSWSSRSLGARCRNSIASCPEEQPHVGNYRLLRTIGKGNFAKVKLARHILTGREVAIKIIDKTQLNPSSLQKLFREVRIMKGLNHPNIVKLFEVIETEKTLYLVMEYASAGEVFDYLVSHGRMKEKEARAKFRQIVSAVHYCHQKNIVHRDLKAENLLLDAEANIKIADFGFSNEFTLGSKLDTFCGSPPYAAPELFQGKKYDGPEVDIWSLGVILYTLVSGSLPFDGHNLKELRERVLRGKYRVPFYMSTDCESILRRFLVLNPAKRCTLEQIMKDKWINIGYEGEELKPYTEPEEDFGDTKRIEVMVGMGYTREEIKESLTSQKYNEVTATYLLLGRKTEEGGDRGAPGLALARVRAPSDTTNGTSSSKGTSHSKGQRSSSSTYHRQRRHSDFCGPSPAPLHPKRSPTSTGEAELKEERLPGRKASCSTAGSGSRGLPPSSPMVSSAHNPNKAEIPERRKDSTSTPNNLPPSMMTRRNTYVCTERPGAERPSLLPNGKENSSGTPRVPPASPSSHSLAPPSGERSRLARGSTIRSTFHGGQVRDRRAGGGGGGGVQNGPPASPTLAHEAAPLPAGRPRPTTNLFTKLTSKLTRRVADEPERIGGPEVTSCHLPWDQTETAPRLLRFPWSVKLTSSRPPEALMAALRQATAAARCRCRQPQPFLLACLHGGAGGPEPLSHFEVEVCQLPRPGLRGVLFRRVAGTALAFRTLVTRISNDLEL
statedConditions: at 0.1 µM
The compounds listed here are annotated with their inhibition.
propertyMeasured: inhibition

1. Nc1nonc1-c1nc2cnccc2n1C1CCCCC1 | 2.83%
2. COc1cc(C=NNc2ncnc3c2cnn3Cc2ccccc2)ccc1O | 1.11%
3. CCn1c(-c2nonc2N)nc2c(C#CC(C)(C)O)nc(O[C@@H](CN)c3ccccc3)cc21 | 74.5%
4. Cc1cc(-c2ccco2)cc(C)c1/C=C/c1cncc(-c2nn[nH]n2)c1 | 1.35%
5. COc1cc2c(cc1Nc1nc(Nc3ccsc3C(N)=O)c3cc[nH]c3n1)N(C(=O)CN(C)C)CCC2 | 0.47%
6. Fc1ccc(-c2ncn(C3CCNCC3)c2-c2ccnc(Oc3ccccc3)n2)cc1 | 1.68%
7. CCn1c(-c2nonc2N)nc2c(C#CC(C)(C)O)ncc(OC[C@@H]3CCCN3)c21 | 11.6%

====

testedSystem: Tyrosine-protein kinase Fer (Homo sapiens);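 also: reported figures are averaged percent inhibition of FER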
statedConditions: at 0.1 µM
propertyMeasured: inhibition (%)

1) Nc1nonc1-c1nc2cnccc2n1C1CCCCC1 | -1.75
2) Fc1ccc(-c2ncn(C3CCNCC3)c2-c2ccnc(Oc3ccccc3)n2)cc1 | 1.63
3) CCn1c(-c2nonc2N)nc2c(C#CC(C)(C)O)ncc(OCC3CCNCC3)c21 | 2.18
4) CCn1c(-c2nonc2N)nc2c(C#CCN)ncc(OCCCN)c21 | 5.14
5) COc1cc(C=NNc2ncnc3c2cnn3Cc2ccccc2)ccc1O | 3.46
6) Cc1cc(-c2ccco2)cc(C)c1/C=C/c1cncc(-c2nn[nH]n2)c1 | 4.17
7) CCn1c(-c2nonc2N)nc2c(C#CC(C)(C)O)nc(O[C@@H](CN)c3ccccc3)cc21 | 3.77
8) COc1cc2c(cc1Nc1nc(Nc3ccsc3C(N)=O)c3cc[nH]c3n1)N(C(=O)CN(C)C)CCC2 | 79.7
9) COc1cccc(COc2cc(-n3cnc4ccccc43)sc2C(N)=O)c1 | -2.66
10) NS(=O)(=O)c1ccc(N/C=C2\C(=O)Nc3ccc4ncsc4c32)cc1 | 0.16

====

# key: entry, value: inhibition
testedSystem: Dual specificity mitogen-activated protein kinase kinase 1 (Homo sapiens);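 also: values reported are mean inhibition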
statedConditions: at 1 µM
propertyMeasured: inhibition

1. COc1cc(C=NNc2ncnc3c2cnn3Cc2ccccc2)ccc1O | -4.65%
2. COc1cccc(COc2cc(-n3cnc4ccccc43)sc2C(N)=O)c1 | 0.58%
3. NC(=O)c1sc(-n2cnc3cc(C(F)(F)F)ccc32)cc1OCc1ccccc1Br | 1.52%
4. Cc1cc(-c2ccco2)cc(C)c1/C=C/c1cncc(-c2nn[nH]n2)c1 | 3.14%

====

testedSystem: cGMP-dependent protein kinase 1 (Homo sapiens) (UniProt Q13976)
Sequence (Q13976 whole entry): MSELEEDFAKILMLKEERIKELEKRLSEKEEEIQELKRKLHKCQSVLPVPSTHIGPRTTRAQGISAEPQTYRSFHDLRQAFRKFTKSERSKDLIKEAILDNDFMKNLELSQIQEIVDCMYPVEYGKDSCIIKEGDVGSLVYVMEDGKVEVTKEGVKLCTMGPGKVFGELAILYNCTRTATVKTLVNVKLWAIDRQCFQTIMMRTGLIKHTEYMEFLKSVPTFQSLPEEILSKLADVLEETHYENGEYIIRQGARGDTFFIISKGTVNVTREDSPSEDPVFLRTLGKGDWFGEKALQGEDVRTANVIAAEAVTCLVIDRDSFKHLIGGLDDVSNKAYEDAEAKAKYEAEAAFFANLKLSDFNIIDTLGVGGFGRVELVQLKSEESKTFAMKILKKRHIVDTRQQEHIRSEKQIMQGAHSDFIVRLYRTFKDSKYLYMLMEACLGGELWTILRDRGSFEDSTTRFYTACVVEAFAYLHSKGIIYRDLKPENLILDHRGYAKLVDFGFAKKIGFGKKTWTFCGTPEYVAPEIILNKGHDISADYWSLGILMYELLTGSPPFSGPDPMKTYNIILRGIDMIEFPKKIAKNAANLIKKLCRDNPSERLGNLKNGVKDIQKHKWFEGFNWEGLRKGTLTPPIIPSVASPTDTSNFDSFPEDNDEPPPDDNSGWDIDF
statedConditions: at 0.1 µM
Description: GSK_PKIS: PRKG1 mean inhibition at 0.1 uM [Nanosyn]
Tag: Satisfied if measured inhibition is not below 10%, Not satisfied if it is.

1. COc1cc(C=NNc2ncnc3c2cnn3Cc2ccccc2)ccc1O | Not satisfied
2. COc1cccc(COc2cc(-n3cnc4ccccc43)sc2C(N)=O)c1 | Not satisfied
3. CCn1c(-c2nonc2N)nc2c(C#CC(C)(C)O)ncc(OC[C@@H]3CCCN3)c21 | Satisfied
4. CCn1c(-c2nonc2N)nc2c(C#CCN)ncc(OCCCN)c21 | Not satisfied
5. CCn1c(-c2nonc2N)nc2c(C#CC(C)(C)O)nc(O[C@@H](CN)c3ccccc3)cc21 | Satisfied
6. Fc1ccc(-c2ncn(C3CCNCC3)c2-c2ccnc(Oc3ccccc3)n2)cc1 | Not satisfied

====

Tested on: Platelet-derived growth factor receptor alpha (Homo sapiens), P16234 [T674I]
Sequence (P16234 whole entry T674I): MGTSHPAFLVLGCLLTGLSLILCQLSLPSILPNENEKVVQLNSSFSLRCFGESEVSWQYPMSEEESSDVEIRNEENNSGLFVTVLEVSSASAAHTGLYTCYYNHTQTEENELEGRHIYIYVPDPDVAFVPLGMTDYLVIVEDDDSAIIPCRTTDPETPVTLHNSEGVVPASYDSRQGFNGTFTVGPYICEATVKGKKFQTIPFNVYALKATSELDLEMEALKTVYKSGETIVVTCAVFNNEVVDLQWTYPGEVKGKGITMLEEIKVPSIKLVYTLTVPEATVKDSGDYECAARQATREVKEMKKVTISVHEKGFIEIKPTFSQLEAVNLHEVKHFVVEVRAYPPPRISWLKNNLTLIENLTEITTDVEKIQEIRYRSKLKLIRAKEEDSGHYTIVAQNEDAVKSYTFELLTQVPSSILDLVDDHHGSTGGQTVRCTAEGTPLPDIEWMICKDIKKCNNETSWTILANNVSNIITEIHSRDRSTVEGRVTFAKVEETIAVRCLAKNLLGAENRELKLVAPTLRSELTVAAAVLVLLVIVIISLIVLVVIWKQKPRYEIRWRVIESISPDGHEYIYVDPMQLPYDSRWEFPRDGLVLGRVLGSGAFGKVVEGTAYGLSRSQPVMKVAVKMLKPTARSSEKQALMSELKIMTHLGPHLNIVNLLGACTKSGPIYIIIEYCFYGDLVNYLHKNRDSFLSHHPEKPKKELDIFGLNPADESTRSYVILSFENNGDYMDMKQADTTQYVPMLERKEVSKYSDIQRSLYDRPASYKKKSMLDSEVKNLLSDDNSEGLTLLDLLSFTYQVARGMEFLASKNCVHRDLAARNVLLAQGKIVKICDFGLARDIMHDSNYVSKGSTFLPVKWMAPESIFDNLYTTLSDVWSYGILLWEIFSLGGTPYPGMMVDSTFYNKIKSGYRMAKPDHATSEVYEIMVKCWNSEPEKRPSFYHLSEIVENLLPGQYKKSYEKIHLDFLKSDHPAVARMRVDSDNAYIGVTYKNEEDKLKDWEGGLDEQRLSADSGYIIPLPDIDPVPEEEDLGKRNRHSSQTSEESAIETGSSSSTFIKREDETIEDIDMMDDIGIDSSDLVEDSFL
statedConditions: at 0.1 µM
Reported values of inhibition for individual entries
propertyMeasured: inhibition (%)

1) CCn1c(-c2nonc2N)nc2c(C#CC(C)(C)O)nc(O[C@@H](CN)c3ccccc3)cc21 | 34.5
2) COc1cc2c(cc1Nc1nc(Nc3ccsc3C(N)=O)c3cc[nH]c3n1)N(C(=O)CN(C)C)CCC2 | 1.93
3) COc1cc(C=NNc2ncnc3c2cnn3Cc2ccccc2)ccc1O | -1.14
4) CCn1c(-c2nonc2N)nc2c(C#CC(C)(C)O)ncc(OCC3CCNCC3)c21 | 7.44
5) Cc1cc(-c2ccco2)cc(C)c1/C=C/c1cncc(-c2nn[nH]n2)c1 | 2.56
6) Fc1ccc(-c2ncn(C3CCNCC3)c2-c2ccnc(Oc3ccccc3)n2)cc1 | 1.52
7) NS(=O)(=O)c1ccc(N/C=C2\C(=O)Nc3ccc4ncsc4c32)cc1 | 15.1
8) NS(=O)(=O)c1ccc(-c2ccc3c(NC(=O)C4CC4)n[nH]c3c2)cc1 | 2.04
9) CCn1c(-c2nonc2N)nc2c(C#CC(C)(C)O)ncc(OC[C@@H]3CCCN3)c21 | 4.92

====

Below, each entry is listed alongside its reported inhibition.
testedSystem: RAC-gamma serine/threonine-protein kinase (Homo sapiens)
statedConditions: at 1 µM
Description: GSK_PKIS: AKT3 mean inhibition at 1 uM [Nanosyn]
propertyMeasured: inhibition (%)

1) COc1cccc(-n2ncc3c(N/N=C/c4ccncc4)ncnc32)c1 | 0.47
2) CCn1c(-c2nonc2N)nc2c(C#CC(C)(C)O)ncc(OCC3CCNCC3)c21 | 86
3) Nc1nonc1-c1nc2cnccc2n1C1CCCCC1 | 32.3
4) Fc1ccc(-c2ncn(C3CCNCC3)c2-c2ccnc(Oc3ccccc3)n2)cc1 | 4.46
5) NS(=O)(=O)c1ccc(-c2ccc3c(NC(=O)C4CC4)n[nH]c3c2)cc1 | -0.65
6) CCn1c(-c2nonc2N)nc2c(C#CC(C)(C)O)ncc(OC[C@@H]3CCCN3)c21 | 90.4

====

Listed below: inhibition values for each entry.
testedSystem: Platelet-derived growth factor receptor beta (Homo sapiens) (UniProt P09619);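 also: reported value is the mean percent inhibition of the kinase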
Sequence (P09619 whole entry): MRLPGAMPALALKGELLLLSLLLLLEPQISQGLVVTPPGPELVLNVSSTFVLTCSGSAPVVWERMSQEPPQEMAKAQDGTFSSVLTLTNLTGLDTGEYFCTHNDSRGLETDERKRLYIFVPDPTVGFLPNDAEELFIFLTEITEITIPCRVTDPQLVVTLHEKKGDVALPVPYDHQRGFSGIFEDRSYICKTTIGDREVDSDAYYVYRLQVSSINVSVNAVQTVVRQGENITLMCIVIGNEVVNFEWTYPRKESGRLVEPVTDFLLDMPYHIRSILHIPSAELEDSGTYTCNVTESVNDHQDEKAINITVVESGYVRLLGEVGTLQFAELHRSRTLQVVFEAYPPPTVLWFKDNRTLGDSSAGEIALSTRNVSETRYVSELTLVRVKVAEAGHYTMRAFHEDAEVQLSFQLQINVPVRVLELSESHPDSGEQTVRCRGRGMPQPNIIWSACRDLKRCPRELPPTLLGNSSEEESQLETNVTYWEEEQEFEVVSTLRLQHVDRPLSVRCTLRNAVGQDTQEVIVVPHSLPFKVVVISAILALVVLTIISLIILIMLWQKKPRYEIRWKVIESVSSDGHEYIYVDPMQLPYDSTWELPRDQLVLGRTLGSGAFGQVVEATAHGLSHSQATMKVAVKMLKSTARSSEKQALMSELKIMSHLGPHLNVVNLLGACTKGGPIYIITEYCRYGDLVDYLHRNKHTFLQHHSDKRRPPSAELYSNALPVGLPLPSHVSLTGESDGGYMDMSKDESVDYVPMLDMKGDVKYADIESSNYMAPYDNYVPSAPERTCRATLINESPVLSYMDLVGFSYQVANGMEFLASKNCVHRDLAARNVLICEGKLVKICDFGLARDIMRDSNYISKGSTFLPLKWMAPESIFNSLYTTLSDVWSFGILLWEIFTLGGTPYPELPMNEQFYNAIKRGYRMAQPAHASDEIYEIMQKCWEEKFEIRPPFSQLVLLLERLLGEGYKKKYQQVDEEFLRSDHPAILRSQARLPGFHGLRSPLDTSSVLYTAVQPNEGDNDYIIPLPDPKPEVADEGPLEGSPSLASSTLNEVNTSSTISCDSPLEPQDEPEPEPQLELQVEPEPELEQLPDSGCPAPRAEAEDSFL
statedConditions: at 0.1 µM
propertyMeasured: inhibition (%)

1. CCn1c(-c2nonc2N)nc2c(C#CC(C)(C)O)nc(O[C@@H](CN)c3ccccc3)cc21 | 50.3
2. COc1cc2c(cc1Nc1nc(Nc3ccsc3C(N)=O)c3cc[nH]c3n1)N(C(=O)CN(C)C)CCC2 | 10.4
3. NC(=O)c1sc(-n2cnc3cc(C(F)(F)F)ccc32)cc1OCc1ccccc1Br | 3.03
4. NS(=O)(=O)c1ccc(-c2ccc3c(NC(=O)C4CC4)n[nH]c3c2)cc1 | 6.55
5. Fc1ccc(-c2ncn(C3CCNCC3)c2-c2ccnc(Oc3ccccc3)n2)cc1 | 3.81

====

testedSystem: Serine/threonine-protein kinase Nek7 (Homo sapiens) (UniProt Q8TDX7);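 also: reported values are mean inhibition of NEK7 from the GSK PKIS kinase screening panel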
Sequence (Q8TDX7 whole entry, looked up): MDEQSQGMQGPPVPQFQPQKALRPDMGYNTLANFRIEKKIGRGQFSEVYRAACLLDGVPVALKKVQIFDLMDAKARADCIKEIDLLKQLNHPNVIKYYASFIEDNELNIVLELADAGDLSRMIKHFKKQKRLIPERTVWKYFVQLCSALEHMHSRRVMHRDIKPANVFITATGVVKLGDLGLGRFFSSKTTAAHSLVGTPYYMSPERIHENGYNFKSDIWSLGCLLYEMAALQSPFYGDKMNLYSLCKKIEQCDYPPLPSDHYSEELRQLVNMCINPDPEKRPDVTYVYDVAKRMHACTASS
statedConditions: at 1 µM
propertyMeasured: inhibition (%)

1. CCn1c(-c2nonc2N)nc2c(C#CC(C)(C)O)nc(O[C@@H](CN)c3ccccc3)cc21 | 0.58
2. NS(=O)(=O)c1ccc(-c2ccc3c(NC(=O)C4CC4)n[nH]c3c2)cc1 | 1.74
3. COc1cccc(COc2cc(-n3cnc4ccccc43)sc2C(N)=O)c1 | 0.66
4. COc1cc(C=NNc2ncnc3c2cnn3Cc2ccccc2)ccc1O | -2.54
5. CCn1c(-c2nonc2N)nc2c(C#CC(C)(C)O)ncc(OCC3CCNCC3)c21 | 3.34
6. NS(=O)(=O)c1ccc(N/C=C2\C(=O)Nc3ccc4ncsc4c32)cc1 | 7.53
7. CCn1c(-c2nonc2N)nc2c(C#CCN)ncc(OCCCN)c21 | -9.67
8. CCn1c(-c2nonc2N)nc2c(C#CC(C)(C)O)ncc(OC[C@@H]3CCCN3)c21 | -0.58
9. Fc1ccc(-c2ncn(C3CCNCC3)c2-c2ccnc(Oc3ccccc3)n2)cc1 | 6.68
10. Nc1nonc1-c1nc2cnccc2n1C1CCCCC1 | -0.97

====

testedSystem: Tyrosine-protein kinase ABL2 (Homo sapiens);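 also: values are mean percent inhibition of ARG (ABL2), measured within the GSK PKIS set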
statedConditions: at 0.1 µM
propertyMeasured: inhibition (%)

1. CCn1c(-c2nonc2N)nc2c(C#CCN)ncc(OCCCN)c21 | -2.47
2. COc1cccc(COc2cc(-n3cnc4ccccc43)sc2C(N)=O)c1 | -0.24
3. NS(=O)(=O)c1ccc(-c2ccc3c(NC(=O)C4CC4)n[nH]c3c2)cc1 | 6.43
4. COc1cc2c(cc1Nc1nc(Nc3ccsc3C(N)=O)c3cc[nH]c3n1)N(C(=O)CN(C)C)CCC2 | 5.49
5. COc1cccc(-n2ncc3c(N/N=C/c4ccncc4)ncnc32)c1 | 47.8
6. Nc1nonc1-c1nc2cnccc2n1C1CCCCC1 | 1.35
7. CCn1c(-c2nonc2N)nc2c(C#CC(C)(C)O)nc(O[C@@H](CN)c3ccccc3)cc21 | 1.15

====

testedSystem: Angiopoietin-1 receptor (Homo sapiens) (UniProt Q02763);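 also: reported value is the mean TIE2 inhibition from the GSK PKIS dataset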
Sequence (Q02763 whole entry): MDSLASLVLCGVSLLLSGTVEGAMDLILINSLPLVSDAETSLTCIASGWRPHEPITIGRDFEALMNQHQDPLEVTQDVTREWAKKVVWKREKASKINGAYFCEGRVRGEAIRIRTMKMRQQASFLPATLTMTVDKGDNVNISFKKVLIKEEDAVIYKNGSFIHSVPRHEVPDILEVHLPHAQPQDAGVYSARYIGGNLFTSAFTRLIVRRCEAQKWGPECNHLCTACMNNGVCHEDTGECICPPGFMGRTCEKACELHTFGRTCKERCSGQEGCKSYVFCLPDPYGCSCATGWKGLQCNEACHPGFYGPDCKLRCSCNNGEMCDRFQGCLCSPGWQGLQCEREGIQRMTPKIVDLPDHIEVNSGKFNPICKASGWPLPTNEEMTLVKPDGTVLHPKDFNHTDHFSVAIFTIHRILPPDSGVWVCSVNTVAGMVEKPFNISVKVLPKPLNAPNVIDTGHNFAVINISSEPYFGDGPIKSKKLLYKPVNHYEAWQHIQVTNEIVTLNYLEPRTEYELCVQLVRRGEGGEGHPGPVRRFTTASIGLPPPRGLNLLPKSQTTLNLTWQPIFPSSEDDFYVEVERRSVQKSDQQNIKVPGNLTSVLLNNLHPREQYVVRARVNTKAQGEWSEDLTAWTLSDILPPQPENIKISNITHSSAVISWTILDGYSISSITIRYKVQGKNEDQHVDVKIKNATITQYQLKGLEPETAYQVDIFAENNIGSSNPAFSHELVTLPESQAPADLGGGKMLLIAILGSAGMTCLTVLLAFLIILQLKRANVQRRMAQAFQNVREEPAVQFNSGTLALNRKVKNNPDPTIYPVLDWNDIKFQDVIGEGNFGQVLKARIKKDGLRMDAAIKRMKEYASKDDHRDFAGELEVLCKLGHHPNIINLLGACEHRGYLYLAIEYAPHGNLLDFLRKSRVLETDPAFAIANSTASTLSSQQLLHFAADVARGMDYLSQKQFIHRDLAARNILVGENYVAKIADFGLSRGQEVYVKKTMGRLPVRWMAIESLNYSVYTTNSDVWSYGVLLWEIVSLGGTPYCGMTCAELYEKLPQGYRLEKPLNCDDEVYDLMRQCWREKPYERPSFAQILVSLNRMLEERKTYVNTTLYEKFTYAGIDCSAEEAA
statedConditions: at 1 µM
propertyMeasured: inhibition (%)

1. NS(=O)(=O)c1ccc(-c2ccc3c(NC(=O)C4CC4)n[nH]c3c2)cc1 | 6.97
2. NS(=O)(=O)c1ccc(N/C=C2\C(=O)Nc3ccc4ncsc4c32)cc1 | 10.4
3. COc1cccc(COc2cc(-n3cnc4ccccc43)sc2C(N)=O)c1 | 3.47
4. CCn1c(-c2nonc2N)nc2c(C#CCN)ncc(OCCCN)c21 | -0.39
5. Nc1nonc1-c1nc2cnccc2n1C1CCCCC1 | 3.18
6. COc1cc2c(cc1Nc1nc(Nc3ccsc3C(N)=O)c3cc[nH]c3n1)N(C(=O)CN(C)C)CCC2 | 10.5
